- Target Or System: hGLP-1R (Homo sapiens)
- Sequence (P43220 24-463): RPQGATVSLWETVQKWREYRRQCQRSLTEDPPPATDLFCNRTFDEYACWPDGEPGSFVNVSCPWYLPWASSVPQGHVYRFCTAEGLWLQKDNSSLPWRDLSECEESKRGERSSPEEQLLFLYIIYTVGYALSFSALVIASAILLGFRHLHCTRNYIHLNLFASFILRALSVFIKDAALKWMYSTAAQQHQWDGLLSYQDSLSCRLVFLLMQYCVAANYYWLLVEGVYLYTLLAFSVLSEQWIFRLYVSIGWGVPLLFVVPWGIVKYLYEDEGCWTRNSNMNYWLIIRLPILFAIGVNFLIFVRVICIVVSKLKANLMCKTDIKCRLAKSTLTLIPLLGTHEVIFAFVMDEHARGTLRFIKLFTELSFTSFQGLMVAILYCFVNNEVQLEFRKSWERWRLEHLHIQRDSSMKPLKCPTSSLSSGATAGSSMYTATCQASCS
- Sequence (P32121 whole entry partner): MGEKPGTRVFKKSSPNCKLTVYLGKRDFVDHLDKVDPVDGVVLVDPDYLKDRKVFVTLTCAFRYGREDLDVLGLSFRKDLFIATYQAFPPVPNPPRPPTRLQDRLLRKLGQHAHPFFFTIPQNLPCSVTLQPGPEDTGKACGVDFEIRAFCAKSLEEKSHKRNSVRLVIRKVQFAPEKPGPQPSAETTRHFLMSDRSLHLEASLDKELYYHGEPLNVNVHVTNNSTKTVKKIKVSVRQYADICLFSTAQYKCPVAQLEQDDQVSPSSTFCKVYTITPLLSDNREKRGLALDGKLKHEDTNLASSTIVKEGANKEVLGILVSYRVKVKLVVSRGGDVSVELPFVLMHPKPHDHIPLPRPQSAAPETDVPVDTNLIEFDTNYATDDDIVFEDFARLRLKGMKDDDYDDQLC
- Measurement Protocol: GLP-1R CHO cell β-arrestin recruitment assay;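 further: luminescence read after 90 min peptide exposure at 37 °C and a further 60 min with detection reagent at room temperature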
- Assay type: cell-based
- Set-up: host or cells: CHO-K1 (PathHunter, assay-ready frozen cells)
- Experimental Context: CHO-K1 PathHunter, β-arrestin-2, 0.1% casein; read-out: hGLP1R β-arrestin Rel EC50
Starred links: 1 amine or outer side, 2 acyl side, 3 side chain; linkers in the order of their positions; H or OH if unused. Non-standard residues stand in square brackets, D forms with d. Groups on a side chain read outwards from the residue. *: point of attachment. C20 diacid = O=C(O)CCCCCCCCCCCCCCCCCCC(=O)*; γGlu = O=C(O)[C@H](CCC(=O)[*:2])N[*:1]; αMeL = CC(C)C[C@](C)(N)C(=O)O; AEEA = NCCOCCOCC(=O)O; Aib = CC(C)(N)C(=O)O
Quantity Name: pEC50
Scale for pEC50: -log10 of concentration given in mol/L; no unit attached.

[
  {
    "Substance": "H-Y[Aib]QGTFTSDFSK[αMeL]LDKK([AEEA-γGlu-C20 diacid])AQ[Aib]AFIEYLLAGGPSSGEPPPSEE-NH2 [Example 4]",
    "Target Or System": "hGLP-1R (Homo sapiens)",
    "Obs Value": 7.63
  }
]

Here is the next item to consider.
Please list pEC50 recorded for the substance H-Y[Aib]QGTFTSDYSK[αMeL]LDKK([AEEA-γGlu-C20 diacid])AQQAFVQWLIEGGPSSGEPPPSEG-NH2 [Example 315]
8.42
